Entry source: patent US20240287048A1

# Tested on: ZR-75-1 cells
# protocol details: Proliferation assay in ZR-75-1 cells
# Assay type: cell-based
# experimental parameters: Homo sapiens, 144 h, Alamar Blue, read-out: ZR75-1 proliferation assay, EC50[M] (arithmetic mean)
The compounds listed here are annotated with their EC50.
endpoint name: EC50 (M)

{"columns": ["structure as smiles", "units", "test value"],
 "data": [
  ["CCOc1ccccc1S(=O)(=O)NC(=O)c1oc2cc(C)ccc2c1C", "M", "5.01e-06"],
  ["O=C(NS(=O)(=O)c1ccccc1OC1CC1)c1cc2c(F)cc(C3CC3)cc2o1", "M", "6.74e-07"],
  ["C=C(C)c1ccc2cc(C(=O)NS(=O)(=O)c3ccccc3-c3ccccc3)oc2c1", "M", "1.15e-06"]
]}

====

# System: ZR-75-1 cells
# protocol details: Proliferation assay in ZR-75-1 cells
# Type: cell-based
# experimental parameters: Homo sapiens, 144 h, Alamar Blue, read-out: ZR75-1 proliferation assay, EC50[M] (arithmetic mean)
# Protocol: For compound characterization cell survival assays were routinely run in two cell lines. ZR-75-1 is a breast carcinoma cell line containing a focal KAT6A amplification and high KAT6A protein expression. Proliferation of this cell line is inhibited upon treatment with KAT6A inhibitors. […] Each sample was prepared as triplicate and rim wells were excluded. […] Cell viability was measured by adding 10 μL of Alamar Blue Reagent (Invitrogen #DAL 1100) and plates were incubated for 2 h at 37° C. and 5% CO2. […]
Entries annotated with measured EC50

{"columns": ["compound", "target or system", "units", "reported relation", "EC50"],
 "data": [
  ["N#Cc1ccc2cc(C(=O)NS(=O)(=O)c3ccccc3-c3ccccc3)oc2c1 [Example 3]", "ZR-75-1 cells", "M", ">", "2e-05"],
  ["O=C(NS(=O)(=O)c1ccccc1-c1ccccc1)c1cc2ccc(C(F)F)cc2o1 [Example 17]", "ZR-75-1 cells", "M", "=", "6.12e-06"],
  ["Cc1ccc2cccc(S(=O)(=O)NC(=O)c3cc4c(C(F)(F)F)cc(C5CC5)cc4o3)c2n1 [Example 50]", "ZR-75-1 cells", "M", "=", "1.38e-05"],
  ["CC(C)c1ccc2cc(C(=O)NS(=O)(=O)c3ccccc3Cl)oc2c1 [Example 73]", "ZR-75-1 cells", "M", "=", "7.08e-06"],
  ["Cc1ccc2cccc(S(=O)(=O)NC(=O)c3cc4ccc(C(F)(F)F)cc4o3)c2n1 [Example 19]", "ZR-75-1 cells", "M", "=", "4.94e-06"],
  ["CCOc1ccccc1S(=O)(=O)NC(=O)c1cc2c(OC)cc(C)cc2o1 [Example 13]", "ZR-75-1 cells", "M", "=", "1.02e-05"],
  ["COc1cc(C)cc2oc(C(=O)NS(=O)(=O)c3ccccc3-c3ccccc3)cc12 [Example 10]", "ZR-75-1 cells", "M", "=", "1.39e-05"],
  ["CCOc1ccccc1S(=O)(=O)NC(=O)c1cc2c(N(C)C)cc(C3CC3)cc2o1 [Example 45]", "ZR-75-1 cells", "M", ">", "2e-05"]
]}

====

# System: ESR1 transcription in MVLN cells
# protocol details: Repression of ESR1 transcription, MVLN luciferase reporter assay
# Format: cell-based
# experimental parameters: Homo sapiens, luciferase signal after 24 h, read-out: MVLN reporter assay, IC50[M] (arithmetic mean)
# Description: KAT6A controls transcription of the ESR1 gene in breast cancer cells. Compound treatment that interferes with this mechanism was quantified using MVLN cells. […] The repressive effect on ERα transcription activity of a test chemical is directly related to the luciferase measured in the lysate of treated MVLN cells. Each sample was prepared as duplicate and rim wells were excluded. […] Then fluorescence was measured with Victor X3 (Perkin Elmer) at 530 nm/590 nm.

{"columns": ["structure as smiles", "IC50"],
 "data": [
  ["CC(C)(C)c1ccc(OC2CCC2)c(S(=O)(=O)NC(=O)c2cc3c(F)cc(C4CC4)cc3o2)c1", "2.24e-07 M"],
  ["Cc1ccc2cccc(S(=O)(=O)NC(=O)c3cc4c(F)cc(C5CC5)cc4o3)c2n1", "2.81e-07 M"],
  ["O=C(NS(=O)(=O)c1ccccc1-c1ccccc1)c1cc2ccc(C3CC3)cc2o1", "1.02e-06 M"],
  ["Cc1cc(C)c2cc(C(=O)NS(=O)(=O)c3ccccc3-c3cccc(Cl)c3)oc2c1", "5.85e-06 M"],
  ["CC(C)(C)c1ccc(OC2CC2)c(S(=O)(=O)NC(=O)c2cc3c(F)cc(C4CC4)cc3o2)c1", "1.04e-07 M"],
  ["CCOc1ccccc1S(=O)(=O)NC(=O)c1cc2c(C(F)(F)F)cc(C3CC3)cc2o1", "2.98e-06 M"],
  ["O=C(NS(=O)(=O)c1ccccc1OC1CC1)c1cc2c(F)cc(C3CC3)cc2o1", "2.47e-07 M"],
  ["CCOc1ccc(C(F)(F)F)cc1S(=O)(=O)NC(=O)c1cc2c(F)cc(C3CC3)cc2o1", "2.31e-07 M"],
  ["O=C(NS(=O)(=O)c1ccccc1-c1ccccc1)c1cc2c(OC(F)F)cc(C3CC3)cc2o1", "5.54e-06 M"],
  ["CC(C)(C)c1ccc(OCc2ccccc2)c(S(=O)(=O)NC(=O)c2cc3c(F)cc(C4CC4)cc3o2)c1", "8.24e-08 M"],
  ["CCOc1ccccc1S(=O)(=O)NC(=O)c1cc2c(OC(F)F)cc(C3CC3)cc2o1", "6.97e-06 M"],
  ["CCOc1ccc(Oc2ccccc2)cc1S(=O)(=O)NC(=O)c1cc2c(F)cc(C3CC3)cc2o1", "1.74e-06 M"],
  ["Cc1ccc2c(C)c(C(=O)NS(=O)(=O)c3ccccc3-c3ccccc3)oc2c1", "4.11e-06 M"],
  ["CC(C)c1ccc2cc(C(=O)NS(=O)(=O)c3ccccc3)oc2c1", "1.52e-05 M"],
  ["COc1ccc(C(C)(C)C)cc1S(=O)(=O)NC(=O)c1cc2c(F)cc(C3CC3)cc2o1", "4.96e-08 M"],
  ["CC(C)c1ccc(OCc2ccccc2)c(S(=O)(=O)NC(=O)c2cc3c(F)cc(C4CC4)cc3o2)c1", "2.19e-07 M"]
]}
